- Test system: PC-3
- run-description: NCI SRB cytotoxicity, Prostate PC-3
- Type: cell-based, human
- measurement-parameters: PC-3, Prostate, 48 h
quantity: Log GI 50

Field: example entries. Status: answers known.
COc1cc2c(cc1OCCCCN1CCN(CCCCOc3cc4c(cc3OC)C(=O)N3CCC[C@H]3C=N4)CC1)N=C[C@@H]1CCCN1C2=O :: −7.02 mol/L
COc1cc2c(cc1OCCCCCN1CCN(CCCCCOc3cc4c(cc3OC)C(=O)N3CCC[C@H]3C=N4)CC1)N=C[C@@H]1CCCN1C2=O :: −5.41 mol/L
COc1cc2c(cc1OCCN1CCN(CCOc3cc4c(cc3OC)C(=O)N3CCC[C@H]3C=N4)CC1)N=C[C@@H]1CCCN1C2=O :: −4.44 mol/L

Identify measured Log GI 50 corresponding to `COc1cc2c(cc1OCCCN1CCN(CCCOc3cc4c(cc3OC)C(=O)N3CCC[C@H]3C=N4)CC1)N=C[C@@H]1CCCN1C2=O` −5.53 mol/L

----------
- System: human tumor cell lines
- run-description: NCI in vitro cytotoxicity SRB assay, mean graph midpoints over the panel
- Type: cell-based
- measurement-parameters: 48 h continuous exposure
quantity: Log10 LC50 mean graph midpoint (MG_MID)
// return just the number, without any unit appended

COc1cc2c(cc1OCCCCN1CCN(CCCCOc3cc4c(cc3OC)C(=O)N3CCC[C@H]3C=N4)CC1)N=C[C@@H]1CCCN1C2=O [Compound VIc] :: −4.47
COc1cc2c(cc1OCCN1CCN(CCOc3cc4c(cc3OC)C(=O)N3CCC[C@H]3C=N4)CC1)N=C[C@@H]1CCCN1C2=O [Compound VIa] :: −4.03
COc1cc2c(cc1OCCCCCN1CCN(CCCCCOc3cc4c(cc3OC)C(=O)N3CCC[C@H]3C=N4)CC1)N=C[C@@H]1CCCN1C2=O [Compound VId] :: −4.04

Let us examine a further case.
Name the recorded Log10 LC50 mean graph midpoint (MG_MID) of the molecule listed here: COc1cc2c(cc1OCCCN1CCN(CCCOc3cc4c(cc3OC)C(=O)N3CCC[C@H]3C=N4)CC1)N=C[C@@H]1CCCN1C2=O [Compound VIb] −4.01

----------
As shown below, each of these compounds has a reported Log LC 50 value.
- Tested on: A549/ATCC
- run-description: NCI SRB cytotoxicity, Non-small-cell lung A549/ATCC
- Type: cell-based, human
- measurement-parameters: 48 h
# value in mol/L; strip the unit string

Solved entries (count: 3):
COc1cc2c(cc1OCCCCCN1CCN(CCCCCOc3cc4c(cc3OC)C(=O)N3CCC[C@H]3C=N4)CC1)N=C[C@@H]1CCCN1C2=O :: −4.00
COc1cc2c(cc1OCCN1CCN(CCOc3cc4c(cc3OC)C(=O)N3CCC[C@H]3C=N4)CC1)N=C[C@@H]1CCCN1C2=O :: −4.00
COc1cc2c(cc1OCCCCN1CCN(CCCCOc3cc4c(cc3OC)C(=O)N3CCC[C@H]3C=N4)CC1)N=C[C@@H]1CCCN1C2=O :: −4.00

Continue with the compound presented below.
Specify the recorded Log LC 50 for `COc1cc2c(cc1OCCCN1CCN(CCCOc3cc4c(cc3OC)C(=O)N3CCC[C@H]3C=N4)CC1)N=C[C@@H]1CCCN1C2=O` , system: A549/ATCC. −4.00
